Cited source for all entries: paper PMC7049619

# protocol: in vivo
# assay_context: male, Sprague-Dawley, rat, plasma, po, 5 mg/kg
assay_readout: MRT (min)
Supply the numeric figure in min, leaving out any unit text.

So what does the record say about MRT for CCc1c(CC2CCCCC2)nc(SCc2cc(-c3ccc(O)cc3)[nH]n2)[nH]c1=O ?
33.2

----------
Catalogue of pEC50 readings, one per entry.
# Test system: HIV-1A17 (K103N + Y181C)
# protocol: Anti-HIV-1 activity against resistant strain HIV-1A17
# Assay type: cell-based
# assay_context: Human immunodeficiency virus 1, C8166
Schema: pEC50 number; meaning minus log10 of the concentration expressed in molar units.

// below: answered compounds
Dear colleague, I am looking for the recorded pEC50 of the following compound: CCc1c(CC2CCCCC2)nc(SCc2cc(-c3ccc(O)cc3)[nH]n2)[nH]c1=O
5.56

# query: pEC50 of entry CCc1c(CC2CCCCC2)nc(SCc2cc(-c3ccc(SC)cc3)[nH]n2)[nH]c1=O
5.31

// next item, pEC50 requested
Quick one: pEC50 of Cc1ccnc2c1NC(=O)c1cccnc1N2C1CC1 [NVP, nevirapine, reference compound] ?
4.70

----------
# protocol: Cytotoxicity in PBMC
# Type: cell-based
# assay_context: human, PBMC (peripheral blood mononuclear cells)
Here, each record is paired with measured CC50 data.

Fill in the blank: the reported CC50 of CCc1c(CC2CCCCC2)nc(SCc2cc(-c3ccc(SC)cc3)[nH]n2)[nH]c1=O [I-12] is ____.
> 200 µM

What does the record list as CC50 for Cc1ccnc2c1NC(=O)c1cccnc1N2C1CC1 [NVP, nevirapine, reference compound] ?
> 200 µM

Consider the compound CCc1c(CC2CCCCC2)nc(SCc2cc(-c3ccc(O)cc3)[nH]n2)[nH]c1=O [I-11] and give its measured CC50.
46.8 µM

----------
# protocol: in vivo
# assay_context: male, Sprague-Dawley, rat, plasma, iv, 1 mg/kg
assay_readout: half-life (h)
Just the number in h, nothing appended.

# get_value(readout='half-life', item= CCc1c(CC2CCCCC2)nc(SCc2cc(-c3ccc(O)cc3)[nH]n2)[nH]c1=O [I-11] )
1.2

----------
# protocol: in vivo
# assay_context: male, Sprague-Dawley, rat, plasma, iv, 1 mg/kg
assay_readout: clearance (mL/min/kg)
Give just the number in mL/min/kg; leave the unit off.

Can you look up the measured clearance of CCc1c(CC2CCCCC2)nc(SCc2cc(-c3ccc(O)cc3)[nH]n2)[nH]c1=O for me?
6.4

----------
# protocol: in vivo
# assay_context: male, Sprague-Dawley, rat, plasma, oral, 5 mg/kg
assay_readout: bioavailability (%)
State the answer as a number, implicitly in %.

Need bioavailability, item CCc1c(CC2CCCCC2)nc(SCc2cc(-c3ccc(O)cc3)[nH]n2)[nH]c1=O [I-11]
10.4
